Where these numbers come from: patent US20230348369A1

Molecular target: endogenous NAMPT (Homo sapiens)
Construct: stimulate the endogenous NAMPT in a native cellular environment; endogenous in cells; host or cells: SH-SY5Y neuroblastoma cells
Sequence (P43490 whole entry): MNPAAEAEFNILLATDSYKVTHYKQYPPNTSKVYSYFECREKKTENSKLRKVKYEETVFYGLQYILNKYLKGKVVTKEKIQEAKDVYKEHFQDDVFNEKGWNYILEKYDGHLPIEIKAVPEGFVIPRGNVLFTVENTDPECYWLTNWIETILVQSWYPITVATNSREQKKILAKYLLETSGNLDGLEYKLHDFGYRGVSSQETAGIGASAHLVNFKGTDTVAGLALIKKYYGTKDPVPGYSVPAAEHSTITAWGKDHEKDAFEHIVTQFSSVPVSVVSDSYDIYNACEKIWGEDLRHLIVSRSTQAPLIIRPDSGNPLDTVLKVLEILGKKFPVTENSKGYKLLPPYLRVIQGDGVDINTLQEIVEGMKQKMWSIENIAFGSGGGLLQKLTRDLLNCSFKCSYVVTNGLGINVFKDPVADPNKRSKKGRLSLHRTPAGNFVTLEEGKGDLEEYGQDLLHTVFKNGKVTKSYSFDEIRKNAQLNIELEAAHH
Experiment: Cellular NAD+ modulation assay in neuroblastoma SH-SY5Y cells
Format: cell-based
Measured EC50 values are reported for all entries that follow.
Quick note: give the figure in nM, leave out the unit.

These recorded examples may help you get a feel for the data.
[[record]]
molecule = "N#Cc1ccccc1C(=O)NC1CC2(CC(NC(=O)NCc3ccc(Cl)cc3)C2)C1 (stereo not drawn) [Compound 212]"
readout_name = "EC50"
observed_value = 100

[[record]]
molecule = "CC(C)(C)OC(=O)N1CCC2(CC1)CC2CNC(=O)NCc1ccc(Cl)cc1 (stereo not drawn) [Compound 27]"
readout_name = "EC50"
observed_value = 5800

[[record]]
molecule = "O=C(NCCCCC1CCN(C(=O)c2ccccc2)CC1)NCc1ccc(Cl)cc1 [Compound 16]"
readout_name = "EC50"
observed_value = 100


[ask] For CC(C)(O)CN1CCN(C(=O)C2CC3(CC(NC(=O)NCc4ccc(Cl)cc4)C3)C2)CC1 (stereo not drawn) [Compound 110] , what is its reported EC50?
[reply] 300

[ask] And for CC(C)(O)CN1CCN(C(=O)[C@H]2C[C@@]3(C[C@H](NC(=O)NCc4ccc(Cl)cc4)C3)C2)CC1 (single isomer, unassigned) [Compound 187] ?
[reply] 200

[ask] Now consider O=C(NCc1ccc(Cl)cc1)NC1CC2(C1)CC(NS(=O)(=O)c1ccccc1)C2 (stereo not drawn) [Compound 121] and answer again.
[reply] 1200

###

Target: human NAMPT (Homo sapiens, UniProt P43490)
Sequence (P43490 whole entry): as above
Assay: Human recombinant enzyme assay (NMN fluorescence biochemical assay, activation of NAMPT)
Conditions: Table A; human recombinant NAMPT, NMN formation, 60 min; read-out: EC50 Human
Readout Name: pEC50
// field semantics: pEC50 = negative decimal log of concentration (mol/L)

Some molecules with known pEC50 results, for comparison:
[[record]]
molecule = "O=C(NCc1ccc(Cl)cc1)NC1CC2(CC(Cn3nncc3-c3ccccc3)C2)C1 (stereo not shown)"
assayed_target = "human NAMPT (Homo sapiens, UniProt P43490)"
readout_name = "pEC50"
observed_value = 6.10

[[record]]
molecule = "COc1ccc(CNC(=O)NC2CC3(C2)CN(C(=O)Cc2ccccc2Cl)C3)cc1"
assayed_target = "human NAMPT (Homo sapiens, UniProt P43490)"
readout_name = "pEC50"
observed_value = 4.38


[ask] Request the reported pEC50 associated with NC(=O)c1ccc(CNC(=O)NCCCCC2CCN(C(=O)c3ccccc3)CC2)cc1
[reply] 5.74

[ask] Record: COc1ccc(CNC(=O)NC2CC3(C2)CN(C(=O)c2ccccc2C)C3)cc1
[reply] 4.33

[ask] Note, next up: O=C(NCc1ccc(Cl)cc1)NC1CC2(CC(Cc3cccnc3)C2)C1 (stereo not shown)
[reply] 6.22

[ask] Okay, and Cc1cc(C(=O)N2CC3(CC(NC(=O)NCc4ccc(C(N)=O)cc4)C3)C2)ccn1 ?
[reply] 4.50

[ask] Again, but for O=C(NCCCCC1CCN(C(=O)c2ncco2)CC1)NCc1ccc(Cl)cc1
[reply] 6.40

###

We begin with a simple list: items and their reported EC50.
Biological target: human NAMPT (Homo sapiens, UniProt P43490)
Experiment: Human recombinant enzyme assay (NMN fluorescence biochemical assay, activation of NAMPT)
Details: Table A; human recombinant NAMPT, NMN formation, 60 min; read-out: EC50 Human
Reply with just the number (in µM).

[[record]]
compound = "COc1ccc(CNC(=O)N[C@H]2C[C@]3(CCN(C(=O)OC(C)(C)C)C3)C2)cc1"
observed_value = 37.2

[[record]]
compound = "COc1ccc(CNC(=O)NCCCCC2CCN(C(=O)c3ccccc3C)CC2)cc1"
observed_value = 2.3

[[record]]
compound = "COc1ccc(CNC(=O)NC2CC3(C2)CN(C(=O)OC(C)(C)C)C3)cc1"
observed_value = 58.9

[[record]]
compound = "O=C(NCCCCC1CCN(C(=O)c2ccccc2-c2nnn[nH]2)CC1)NCc1ccc(Cl)cc1"
observed_value = 2

[[record]]
compound = "COc1ccc(CNC(=O)NC2CC3(C2)CC(C(=O)NCC(C)(C)c2ccccc2C)C3)cc1 (centres unmarked)"
observed_value = 29.4

[[record]]
compound = "CC(C)(C)OC(=O)N1CC2(CC(NC(=O)NCc3ccc(Cl)cc3)C2)C1"
observed_value = 13.5


[ask] Entry O=C(NCCCCC1CCN(C(=O)c2ccccc2C(F)F)CC1)NCc1ccc(Cl)cc1 : reported EC50 = ?
[reply] 0.7

[ask] Quick one: Cc1ccccc1C(=O)N1CCC(CCCCNC(=O)NCc2ccc(C(N)=O)cc2)CC1
[reply] 2.1
